Tested on: C. glabrata
Assay: Checkerboard FIC assay in combination with fluconazole (MIC alone and in combination, FICI)
Type: cell-based, Candida glabrata
Conditions: C. glabrata; FICI calculated using a fluconazole MIC of 16 μg/mL
Protocol: The ability of the compounds to synergize with azoles against C. glabrata was evaluated by the checkerboard assay, a common laboratory method used to evaluate synergy, antagonism, and indifference using fractional inhibitory concentrations (FICs) and FIC indices (FICI). The test compounds were supplied as a powder and dissolved in dimethylsulfoxide (DMSO) on the day of assay. Stock solutions were prepared at 640 ug/mL. […] FIC values were determined using a broth microdilution method (CLSI; 1, 3). […]
measured_parameter: FICI of combination resulting in fluconazole MIC of: 4 ug/mL
Number only, no unit.

[[record]]
molecule = "CN1CCC(C(=O)Nc2ccc(CCCCc3ccc(CC(=O)NO)cc3)cc2)CC1.Cl [Example 34]"
assay_value = 0.375

[[record]]
molecule = "COC(=O)Nc1ccc(CCCCc2ccc(CC(=O)NO)cc2)cc1 [Example 48]"
assay_value = 0.188

[[record]]
molecule = "CC(=O)Nc1ccc(CCCCc2ccc(CC(=O)NO)cc2)cc1 [Example 39]"
assay_value = 0.375


Q. Retrieve FICI of combination resulting in fluconazole MIC of: 4 ug/mL measured for O=C(Cc1ccc(CCCCc2cccc(NS(=O)(=O)CCN3CCOCC3)c2)cc1)NO [Example 53] and print it.
A. 0.250

Q. Retrieve FICI of combination resulting in fluconazole MIC of: 4 ug/mL measured for O=C(Cc1ccc(C(O)CCCc2ccccc2)cc1)NO (stereo not shown) [Example 59] and print it.
A. 0.375

Q. Retrieve FICI of combination resulting in fluconazole MIC of: 4 ug/mL measured for O=C(Cc1ccc(CCCC(O)c2ccccc2)cc1)NO (stereo not shown) [Example 25] and print it.
A. 0.375

Q. Retrieve FICI of combination resulting in fluconazole MIC of: 4 ug/mL measured for CN1CCN(CCS(=O)(=O)Nc2cccc(CCCCc3ccc(CC(=O)NO)cc3)c2)CC1 [Example 54] and print it.
A. 0.250

Q. Retrieve FICI of combination resulting in fluconazole MIC of: 4 ug/mL measured for CC(C(=O)NO)c1ccc(CCC(O)Cc2ccccc2)cc1 (stereo not shown) [Example 58] and print it.
A. 0.250

Q. Retrieve FICI of combination resulting in fluconazole MIC of: 4 ug/mL measured for COCCOCCOCCOCCOCCOc1ccc(CCCCc2ccc(CC(=O)NO)cc2)cc1 [Example 10] and print it.
A. 0.500

Q. Retrieve FICI of combination resulting in fluconazole MIC of: 4 ug/mL measured for COCCOCCOCC(=O)Nc1cccc(CCCCc2ccc(CC(=O)NO)cc2)c1 [Example 40] and print it.
A. 0.250

Q. Retrieve FICI of combination resulting in fluconazole MIC of: 4 ug/mL measured for COc1ccc(CCCCc2ccc(CC(=O)NO)cc2)cc1OC [Example 13] and print it.
A. 0.375

Q. Retrieve FICI of combination resulting in fluconazole MIC of: 4 ug/mL measured for CC(=O)Nc1cccc(CCCCc2ccc(CC(=O)NO)cc2)c1 [Example 42] and print it.
A. 0.375

Q. Retrieve FICI of combination resulting in fluconazole MIC of: 4 ug/mL measured for COCCOCCOCCOCCC(=O)Nc1ccc(CCCCc2ccc(CC(=O)NO)cc2)cc1 [Example 37] and print it.
A. 0.500

Q. Retrieve FICI of combination resulting in fluconazole MIC of: 4 ug/mL measured for O=C(Cc1ccc(CCCC(F)(F)c2ccccc2)cc1)NO [Example 29] and print it.
A. 0.625

Q. Retrieve FICI of combination resulting in fluconazole MIC of: 4 ug/mL measured for CN1CCC(C(=O)Nc2cccc(CCCCc3ccc(CC(=O)NO)cc3)c2)CC1 [Example 43] and print it.
A. 0.250

Q. Retrieve FICI of combination resulting in fluconazole MIC of: 4 ug/mL measured for CN(C)CCSCC(=O)Nc1ccc(CCCCc2ccc(CC(=O)NO)cc2)cc1 [Example 38] and print it.
A. 0.375

Q. Retrieve FICI of combination resulting in fluconazole MIC of: 4 ug/mL measured for O=C(Cc1ccc(CCCCc2cccc(NC(=O)CO)c2)cc1)NO [Example 41] and print it.
A. 0.375

Q. Retrieve FICI of combination resulting in fluconazole MIC of: 4 ug/mL measured for Cn1cnc(CNC(=O)c2ccc(CCCCc3ccc(CC(=O)NO)cc3)cc2)c1 [Example 23] and print it.
A. 0.250
